assay: Measured Log D; format: physicochemical; conditions: free base
Recorded Metric: logD

Look up and report measured logD for this entry: Cn1c(=O)n(C2CCC(=O)NC2=O)c2ccc(C3CCN(C(=O)[C@H]4CC[C@H](NC(=O)[C@@H]5NC6(CCCCC6)[C@@]6(C(=O)Nc7cc(Cl)ccc76)[C@H]5c5cccc(Cl)c5F)CC4)CC3)cc21 (stereo partly shown)
> 3.7

====

assay: Aqueous solubility of drug substance; format: physicochemical; conditions: aqueous media over pH 3 to 8, aqueous buffer, pH range between 3 to 8
Recorded Metric: solubility

Please indicate solubility recorded for Cn1c(=O)n(C2CCC(=O)NC2=O)c2ccc(C3CCN(C(=O)[C@H]4CC[C@H](NC(=O)[C@@H]5NC6(CCCCC6)[C@@]6(C(=O)Nc7cc(Cl)ccc76)[C@H]5c5cccc(Cl)c5F)CC4)CC3)cc21 (stereo partly shown) [Compound A]
< 10 µg/mL

Values from patent US20250352535A1
